# Measured target: T1, Biotin-huCGRPaSA (human, not fully specified; biotin (position not given))
# T1 construct: exact construct ('aSA') not explained; also called Biotin CGRPaSA; full-length (1-37) CGRP
# T1 peptide: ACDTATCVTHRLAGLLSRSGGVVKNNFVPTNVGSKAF
# Measurement notes: ELISA, supernatant; relative to chimeric C245
# Method: Biotin CGRPaSA was diluted with PBS (Hyclone) to 1.0 μg/mL, and the dilution was added to a microplate at 100 μL/well. The plate was let stand in an incubator at 37° C. and coated for 90 min and then washed, and 2% BSA was added to the plate at 200 μL/well. […] Finally, a 2 M hydrochloric acid solution was added at 100 μL/well to stop the reaction while avoiding bubbles, and the plates were read on a microplate reader within 10 min (wavelength: 450/620 nm).
Please note: T applies when Relative binding activity, % is 60% or greater, and F applies otherwise.

Answered cases to consult:
[[record]]
binder = "hu134 (antibody, V domains shown, 2B8 HC1-3/1A2 LC2-4) VH: QVQLVQSGAEVKKPGASVKVSCKASGYTFTDYNMHWVRQAPGQGLEWMGNIYPYNAGTVYNQKFNNRVTLTVDTSSSTAYMELSRLRSDDTAVYYCAREGLGGYWGQGTLVTVSS VL: DIQLTQSPSFLSASVGDRVTITCKASQNIDYDGYAYLNWYQQKPGKAPKVLIYSVFNLESGVPSRFSGSGSGTEFTLTISSLQPEDFATYYCQQSNEFPYTFGQGTKLEIK"
group_label = "T"

[[record]]
binder = "hu55 (antibody, V domains shown, 1F5 HC-3/1A2 LC2-3) VH: QVQLVQSGAEVKKPGASVKVSCKASGYTFTDFNMHWVRQAPGQGLEWMGYIYPYNGDVVYNQNFTNRVTLTVDTSSSTAYMELRSLRSDDTAVYYCAREGLGGYWGQGTLVTVSS VL: EIVLTQSPATLSLSPGERATLSCKASQNIDYDGYAYLNWYQQKPGQAPRVLIYSVFNLESGIPARFSGSGSGTDFTLTISSLEPEDFAVYYCQQSNEFPYTFGQGTKLEIK"
group_label = "F"

[[record]]
binder = "hu127 (antibody, V domains shown, 2B8 HC1-2/2B8 LC2-2) VH: QVQLVQSGAEVKKPGASVKVSCKASGYTFTDYNMHWVRQAPGQGLEWMGNIYPYNGGTVYNQKFNNRVTLTVDTSSSTAYMELRSLRSDDTAVYYCAREGLGGYWGQGTLVTVSS VL: DVQLTQSPSFLSASVGDRVTITCQASQNIDGNTYMNWYQQKPGKAPKVLIYSIFNLESGVPSRFSGSGSGTEFTLTISSLQPEDFATYYCQQSNDYPYTFGQGTKLEIK"
group_label = "F"

[[record]]
binder = "hu68 (antibody, V domains shown, 1F5 HC-4/1A2 LC2-3) VH: QVQLVQSGSELKKPGASVKVSCKASGYTFTDFNMHWVRQAPGQGLEWMGYIYPYNGDVVYNQNFTNRFVLSVDSSSSTAYLQISSLKAEDTAVYYCAREGLGGYWGQGTLVTVSS VL: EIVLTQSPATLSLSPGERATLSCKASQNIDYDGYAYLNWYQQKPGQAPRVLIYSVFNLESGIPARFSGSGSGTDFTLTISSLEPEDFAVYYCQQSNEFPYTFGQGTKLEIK"
group_label = "T"


QUERY: Check the entry hu222 (antibody, V domains shown, 3C1 HC-1/3C1 LC-1) VH: QVQLVQSGAEVKKPGASVKVSCKASGYSFTGYTMNWVRQAPGQRLEWMGLINPYIGNTHYNQKFKDRVTFTVDRSSSTAYMELSSLRSEDTAVYYCARELDSGFDYWGQGTLVTVSS VL: DVVMTQSPLSLPVTLGQPASISCRSSQNIVHSNGDTYLEWYQQRPGQSPRLLIYKVSNRFSGVPDRFSGSGSGTDFTLKISRVEAEDVGVYYCYQGSHVPWTFGQGTKLEIK : does Relative binding activity, % equal or exceed 60%?
RESULT: T

All values here come from patent US20260125454A1.
